Origin of the recorded values: ChEMBL document CHEMBL4513141

System: Candida albicans
Condition: 20 µM
Description: Antifungal activity against Candida albicans ATCC 90028 (CO-ADD:FG_001); MIC in YNB media using NBS plates, by OD630
Results with a measured potency or affinity are listed apart. Square brackets hold non-standard residues; d marks the D form. Peptide text beside a SMILES is read from it. pGlu = O=C1CC[C@@H](C(=O)O)N1; Thz = O=C(O)[C@@H]1CSCN1
Value Kind: Inhibition (%)
Use % as the unit, but write only the number.

{"Molecule": "COc1ccc(Cl)cc1C(=O)NCCc1ccc(S(=O)(=O)NC(=O)NC2CCCCC2)cc1 [GLYBURIDE]", "Inhibition, %": -0.39}
{"Molecule": "CC(Cc1ccc(O)c(O)c1)(NN)C(=O)O.O (centres undefined)", "Inhibition, %": 2.35}
{"Molecule": "CC12CC3CC(C)(C1)CC(N)(C3)C2.Cl [MEMANTINE HYDROCHLORIDE]", "Inhibition, %": 4.09}
{"Molecule": "CN(C)c1nc(N(C)C)nc(N(C)C)n1", "Inhibition, %": 4.65}
{"Molecule": "O=C1CC[C@@H](C(=O)N2CSC[C@H]2C(=O)O)N1 [PIDOTIMOD] ([pGlu]-[Thz]-OH)", "Inhibition, %": 0.05}
{"Molecule": "CCCCNc1cc(C(=O)O)cc(S(N)(=O)=O)c1Oc1ccccc1 [BUMETANIDE]", "Inhibition, %": 3.22}
{"Molecule": "Cl.NC[C@H]1CC[C@H](C(=O)Oc2ccc(CCC(=O)O)cc2)CC1 [CETRAXATE HYDROCHLORIDE]", "Inhibition, %": 4.33}
{"Molecule": "C[C@]12CC[C@@H]3c4ccc(O)cc4CC[C@H]3[C@@H]1CC[C@@H]2O", "Inhibition, %": 5.91}

The molecule listed as CCN(CC)CCOC(=O)c1ccc(N)cc1.Cl [PROCAINE HYDROCHLORIDE] shows Inhibition equal to 3.62

The molecule listed as `CCC(=C(c1ccccc1)c1ccc(OCCN(C)C)cc1)c1ccccc1` shows Inhibition equal to 5.96

The molecule listed as NNCCc1ccccc1.O=S(=O)(O)O [PHENELZINE SULFATE] shows Inhibition equal to 4.34

The molecule listed as `CCC(C)(C)C(=O)O[C@H]1C[C@@H](C)C=C2C=C[C@H](C)[C@H](CC[C@@H]3C[C@@H](O)CC(=O)O3)[C@H]21` shows Inhibition equal to 14.8

The molecule listed as `Cc1sc(N)c(C(=O)c2cccc(C(F)(F)F)c2)c1C` shows Inhibition equal to 1.23

The molecule listed as `CCCC(CCC)C(=O)O` shows Inhibition equal to 5.05

The molecule listed as `C=C[C@H]1CN2CC[C@H]1C[C@@H]2[C@@H](O)c1ccnc2ccc(OC)cc12` shows Inhibition equal to -0.46

The molecule listed as CC(C[N+](C)(C)C)OC(N)=O.[Cl-] (centres undefined) [BETHANECHOL CHLORIDE] shows Inhibition equal to 0.53

The molecule listed as `O=C1c2c(O)cc(O)cc2O[C@H](c2ccc(O)c(O)c2)[C@@H]1O` shows Inhibition equal to 3.45

The molecule listed as Cc1cccc(C)c1OCC(C)N.Cl (centres undefined) [MEXILETINE HYDROCHLORIDE] shows Inhibition equal to 3.72

The molecule listed as COc1ccccc1OCC(O)COC(N)=O (centres undefined) shows Inhibition equal to 3.99
